B1: Homeobox protein cut-like 1, residues 548 to 629; numbered along this chain, P39880 (parent)
chain: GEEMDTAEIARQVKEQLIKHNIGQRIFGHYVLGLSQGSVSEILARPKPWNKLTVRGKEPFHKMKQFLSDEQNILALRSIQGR

Variants of: B1
Test: abundance fitness (aPCA) (normalised: wild type 0, dead -1); higher = more abundant; growth selection in yeast, the domain comes from the species named
Settings: Homo sapiens
Property: abundance fitness
Quick one: just the number, no unit, thanks!

Worked examples follow.
I22Y ... -0.916
D5S ... -0.082
Q36P ... 0.071
L34Q ... -0.173
G1Q ... -0.051

With those in mind, consider the next variant.
Q: Return reported abundance fitness; argument: K64N
Result: -0.225
